The values you see were collected from patent US9303042B2.

Below, each entry is listed with its recorded % Remaining after 10 min incubation with liver microsomes.
- MEASUREMENT_NOTES: In vitro metabolic stability in hepatic microsomes
- Assay type: in vitro ADME, rat
- TEST_PARAMETERS: 10 min, liver microsomes, NADPH, compound 5 μM
ASSAY_ENDPOINT: % Remaining after 10 min incubation with liver microsomes

{"columns": ["COMPOUND", "REPORTED_VALUE"],
 "data": [
  ["O=S(=O)(c1ccc(Cl)cc1)c1nnn2c1nc(NCc1cccs1)c1sccc12", "52%"],
  ["Cc1ccc(S(=O)(=O)c2nnn3c2nc(NCCC(C)C)c2sccc23)cc1C", "35%"],
  ["CCCCNc1nc2c(S(=O)(=O)c3ccc(C(C)C)cc3)nnn2c2ccsc12", "<2%"],
  ["CCc1ccc(S(=O)(=O)c2nnn3c2nc(NCCCOC)c2sccc23)cc1", "<2%"],
  ["CCCCNc1nc2c(S(=O)(=O)c3ccc(Cl)cc3)nnn2c2ccsc12", "74%"],
  ["Cc1ccc(S(=O)(=O)c2nnn3c2nc(NCc2ccco2)c2sccc23)cc1C", "<2%"],
  ["COCCNc1nc2c(S(=O)(=O)c3cc(C)ccc3C)nnn2c2ccsc12", "29%"],
  ["COCCNc1nc2c(S(=O)(=O)c3ccc(Cl)cc3)nnn2c2ccsc12", "63%"],
  ["Cc1ccc(S(=O)(=O)c2nnn3c2nc(NCc2ccc(F)cc2)c2sccc23)cc1", "86%"],
  ["COc1ccc(CNc2nc3c(S(=O)(=O)c4ccc(C)cc4)nnn3c3ccsc23)cc1", "80%"],
  ["CCc1ccc(S(=O)(=O)c2nnn3c2nc(NCCOC)c2sccc23)cc1", "<2%"],
  ["Cc1ccc(C)c(S(=O)(=O)c2nnn3c2nc(NCCC(C)C)c2sccc23)c1", "61%"],
  ["CCc1ccc(S(=O)(=O)c2nnn3c2nc(N(CC)CC)c2sccc23)cc1", "6%"],
  ["CCc1ccc(S(=O)(=O)c2nnn3c2nc(NCc2ccccc2)c2sccc23)cc1", "44%"],
  ["COc1ccc(CNc2nc3c(S(=O)(=O)c4ccc(C)c(C)c4)nnn3c3ccsc23)cc1", "12%"],
  ["CCc1ccc(S(=O)(=O)c2nnn3c2nc(NCC2CCCO2)c2sccc23)cc1 (centres unmarked)", "26%"],
  ["CCOCCCNc1nc2c(S(=O)(=O)c3ccc(C)c(C)c3)nnn2c2ccsc12", "2%"]
]}
